# target.desc: serotonin 1A receptor (Rattus norvegicus)
# Sequence (P19327 whole entry): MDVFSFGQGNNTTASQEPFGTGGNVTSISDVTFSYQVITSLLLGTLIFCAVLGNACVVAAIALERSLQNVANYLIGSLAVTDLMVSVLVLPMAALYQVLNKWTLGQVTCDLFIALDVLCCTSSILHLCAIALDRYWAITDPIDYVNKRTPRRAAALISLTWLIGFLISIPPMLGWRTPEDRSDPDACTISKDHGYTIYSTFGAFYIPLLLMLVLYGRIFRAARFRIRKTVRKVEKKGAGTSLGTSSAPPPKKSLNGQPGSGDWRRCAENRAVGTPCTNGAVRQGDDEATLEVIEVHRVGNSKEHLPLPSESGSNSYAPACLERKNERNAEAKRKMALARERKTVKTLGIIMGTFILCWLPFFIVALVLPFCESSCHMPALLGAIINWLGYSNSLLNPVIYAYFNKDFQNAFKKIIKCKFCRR
Counter-ions that a name gives are not always drawn.
Returns: string. Value is T if measured Ki is below 8 nM, and F if it is greater than or equal to it.

Worked examples follow.
{"columns": ["molecule", "target.desc", "label.class"],
 "data": [
  ["Fc1ccc(CCN2CCN(C3CCCc4cnccc43)CC2)cc1 (stereo not shown) [Example 283, Hydrochloride]", "serotonin 1A receptor (Rattus norvegicus)", "F"],
  ["Fc1ccc(CCN2CCC(N3CCc4ccc(-c5ccccn5)cc43)CC2)cc1", "serotonin 1A receptor (Rattus norvegicus)", "T"],
  ["NCc1ccc2c(c1)N(C1CCN(CCc3ccc(F)cc3)CC1)CC2", "serotonin 1A receptor (Rattus norvegicus)", "T"],
  ["CS(=O)(=O)Nc1cc2c(cc1Cl)CCN2C1CCN(CCc2ccc(F)cc2)CC1", "serotonin 1A receptor (Rattus norvegicus)", "T"],
  ["O=C(Cc1ccc2ccn(C3CCN(CCc4ccc(F)cc4)CC3)c2c1)NC(CO)CO.O=C(O)C(=O)O [Example 304, Oxalate]", "serotonin 1A receptor (Rattus norvegicus)", "F"],
  ["CCN1CCC(CN2CC(Cc3ccc(OC)cc3)c3ccccc32)CC1 (stereo not shown)", "serotonin 1A receptor (Rattus norvegicus)", "F"]
]}

Kindly review the next molecule as well.
(Q) Given `Fc1ccc(OCCCN2CCC(N3CCc4ccccc43)CC2)cc1` , is recorded Ki strictly lower than 8 nM?
(A) F

---

Where a name gives a salt, the structure may show the parent alone.
assay.readout: melting point

{"columns": ["compound", "test.value"],
 "data": [
  ["CCN1CCN([C@@H]2c3ccccc3CC2N(C)Cc2ccc(F)cc2)CC1 (some centres unmarked) (as salt: hydrochloride) [Example 254]", "196 to 198 °C"],
  ["NC(=O)Cc1ccc2ccn(C3CCN(CCc4ccc(F)cc4)CC3)c2c1 [Example 305]", "159.1 to 160.8 °C"],
  ["COc1ccc2c(c1)N(C1CCN(CCc3cccs3)CC1)CCC2 (as salt: hydrochloride) [Example 270]", "232 to 235 °C"],
  ["COc1ccc2c(c1)N(C1CCN(CCc3ccc(F)cc3)CC1)CCC2 (as salt: hydrochloride)", "258 °C (dec.)"],
  ["CCNC(=O)Cc1ccc2ccn(C3CCN(CCc4ccccc4F)CC3)c2c1 [Example 344]", "147 to 148.6 °C"]
]}

(Q) Can you look up the measured melting point of O=C(Cc1ccc2ccn(C3CCN(CCc4ccc(F)cc4)CC3)c2c1)N1CCCC1 (as salt: oxalate) [Example 298] for me?
(A) 171.5 to 172.1 °C

(Q) Look at this compound and give its reported melting point. COCCNC(=O)Cc1ccc2ccn(C3CCN(CCc4ccc(F)cc4)CC3)c2c1 [Example 309]
(A) 113.2 to 114.4 °C

(Q) Would you kindly share the measured melting point for COC(=O)NCc1ccc2ccn(C3CCN(CCc4ccc(F)cc4)CC3)c2c1 [Example 384] ?
(A) 117 to 118 °C

---

# target.desc: α1 adrenalin receptor
# assay.procedure: Binding test on [3H] prazosin (α1 adrenalin receptor)
# Parameters: species or system rat
# protocol.conditions: [3H] prazosin about 0.2 nM, receptor fraction of rat cerebral cortex
Structures can show the parent of a compound that is named as a salt.
The entries below are paired with their reported Ki.
Expressed in nM, but write only the number.

Consider the reported Ki for these compounds:
{"columns": ["compound", "endpoint.unit", "Ki"],
 "data": [
  ["CC(=O)Nc1ccc2ccn(C3CCN(CCc4ccc(F)cc4)CC3)c2c1 [Example 339]", "nM", 31.7],
  ["CC(c1ccc2c(c1)N(C1CCN(CCc3ccc(F)cc3)CC1)CC2)c1ccccn1 (stereo not shown) [Example 182]", "nM", 70.1],
  ["NC(=O)CNC(=O)Cc1ccc2ccn(C3CCN(CCc4ccc(F)cc4)CC3)c2c1 [Example 306, Oxalate]", "nM", 148]
]}

(Q) Which Ki value belongs to O=C(Cc1ccc2ccn(C3CCN(CCc4ccc(F)cc4)CC3)c2c1)NCCN1CCOCC1 [Example 313, Oxalate] ?
(A) 144
